assay: chemical genetic growth profiling, strain panel (AID 1159580);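 further: tested at 20 µM; growth read once vehicle control cultures reached saturation at 30 °C; 1 = growth at the plate median or of vehicle wells; lower values mean less growth of the strain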; conditions: S. cerevisiae deletion strains, growth OD, locus YKL085W, strain MDH1 (second series), active compounds read low
Among all 5,500 compounds or so, about 2,000 (36%) were called active. Inconclusive results (about 18%) are left out. Some of the results follow.
Please provide measured normalized growth for the entries that follow.
Numbers only.

For orientation, consider the following solved cases.
{"columns": ["Compound", "Measurement Type", "Reported"],
 "data": [
  ["C[C@H]1OC(n2cc(F)c(=O)[nH]c2=O)C(O)[C@@H]1O (stereo partly drawn)", "normalized growth", 0.981],
  ["COc1cc2c(cc1OC)C1C(=O)c3c(OC)cc4c(c3OC1CO2)CCC(C)(C)O4 (stereo not drawn)", "normalized growth", 0.978],
  ["CCCCCCCCCCCCCCCC[N+](C)(C)C", "normalized growth", 0.0537],
  ["c1ccc(N=Nc2ccccc2)cc1", "normalized growth", 1.01],
  ["CC1CC2C3CCC4=CC(=O)C=C[C@]4(C)[C@@]3(F)[C@@H](O)C[C@]2(C)[C@@]1(O)C(=O)CO (stereo partly drawn)", "normalized growth", 0.985],
  ["CCOC(=O)C(Cc1ccc(O)cc1)NC(C)=O (stereo not drawn)", "normalized growth", 1],
  ["C=C(C)C1CNC(C(=O)O)C1CC(=O)O (stereo not drawn)", "normalized growth", 1.01],
  ["C=C1C([C@]2(C)C(CC(=O)OC)[C@@](C)(COC(C)=O)OC(=O)C[C@@H]2OC(C)=O)[C@@H](OC=O)[C@H](OC(=O)C(O)C(C)CC)[C@@]2(C)[C@H](c3ccoc3)CC(=O)C12O (stereo partly drawn)", "normalized growth", 0.999],
  ["CC(=O)c1c(O)c(C)c(O)c2c1oc1c(C(C)=O)c(O)c(C)c(O)c12", "normalized growth", 0.982],
  ["COc1ccc2c3c1O[C@H]1C[C@@H](O)C=C[C@@]31CCN(C)C2", "normalized growth", 1]
]}

For each listed entry, give its normalized growth.
1. O=C(O)c1cc2ccccc2c(Cc2c(O)c(C(=O)O)cc3ccccc23)c1O
2. COc1cc(NS(=O)(=O)c2ccc(N)cc2)nc(OC)n1
3. CCC(C)C(OC(C)=O)C(=O)OC1C(O)C2C3(C)C=CC(=O)C(C)(C)C3CC(OC(=O)C(O)C(C)C)C2(C)C23OC2CC(c2ccoc2)C13C (stereo not drawn)

## Result
[1, 0.991, 1.04]
